- TARGET ENTITY: hNK1 (Homo sapiens)
- Construct: expressed in transfected cells; host or cells: CHO
- Sequence (P25103 whole entry): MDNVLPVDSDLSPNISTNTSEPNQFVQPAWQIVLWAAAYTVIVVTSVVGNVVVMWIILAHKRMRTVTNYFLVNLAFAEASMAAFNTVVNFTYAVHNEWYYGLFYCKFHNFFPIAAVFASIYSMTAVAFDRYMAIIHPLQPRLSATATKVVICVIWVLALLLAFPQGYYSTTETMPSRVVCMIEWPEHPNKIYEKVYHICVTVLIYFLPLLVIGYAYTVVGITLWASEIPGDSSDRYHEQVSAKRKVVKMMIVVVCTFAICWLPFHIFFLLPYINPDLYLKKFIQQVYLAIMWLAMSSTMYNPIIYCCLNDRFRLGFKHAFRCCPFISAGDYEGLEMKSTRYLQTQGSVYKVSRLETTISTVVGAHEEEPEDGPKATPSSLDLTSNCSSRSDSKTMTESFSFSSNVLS
- EXPERIMENT SUMMARY: hNK1/CHO cell membrane radioligand binding assay ([3H]SP)
- RUN PARAMETERS: ratio human/rat NK1
Non-standard residues stand in square brackets, D forms with d. Residues, ends and D or L forms follow the SMILES beside them. *: point of attachment. NH(3,5-(CF3)2-benzyl) = FC(F)(F)c1cc(CN*)cc(C(F)(F)F)c1; NMePhe(4-F) = CN[C@@H](Cc1ccc(F)cc1)C(=O)O; NMeW = CN[C@@H](Cc1c[nH]c2ccccc12)C(=O)O; Dmt = Cc1cc(O)cc(C)c1C[C@H](N)C(=O)O; NMeF = CN[C@@H](Cc1ccccc1)C(=O)O
RECORDED METRIC: Ki^hNK1/Ki^rNK1

`CC(C)C[C@H](NC(=O)[C@@H]1CCCN1C(=O)Cc1ccc(NC(=O)[C@H](Cc2ccccc2)N(C)C(=O)CNC(=O)[C@@H](C)NC(=O)[C@@H](N)Cc2ccc(O)cc2)cc1)C(=O)N[C@@H](Cc1c[nH]c2ccccc12)C(=O)NCc1cc(C(F)(F)F)cc(C(F)(F)F)c1` yielded Ki^hNK1/Ki^rNK1 of 1/14

Looking up CC(C)C[C@H](NC(=O)[C@@H]1CCCN1C(=O)CNC(=O)[C@H](Cc1ccccc1)N(C)C(=O)CNC(=O)[C@@H](C)NC(=O)[C@@H](N)Cc1ccc(O)cc1)C(=O)N[C@@H](Cc1c[nH]c2ccccc12)C(=O)NCc1cc(C(F)(F)F)cc(C(F)(F)F)c1 [AKG113] (H-Y[dA]G[NMeF]GPLW-{NH(3,5-(CF3)2-benzyl)}) , I see its Ki^hNK1/Ki^rNK1 listed as 1/4

Reported Ki^hNK1/Ki^rNK1 for CC(C)C[C@H](NC(=O)[C@@H]1CCCN1C(=O)CNC(=O)[C@H](CO)NC(=O)[C@H](Cc1ccccc1)N(C)C(=O)CNC(=O)[C@@H](C)NC(=O)[C@@H](N)Cc1ccc(O)cc1)C(=O)N[C@@H](Cc1c[nH]c2ccccc12)C(=O)NCc1cc(C(F)(F)F)cc(C(F)(F)F)c1 [AKG-CRA-136] (H-Y[dA]G[NMeF]SGPLW-{NH(3,5-(CF3)2-benzyl)}) was 1/17

The reported value for `CC(C)C[C@H](NC(=O)[C@@H]1CCCN1C(=O)c1ccc(NC(=O)[C@H](Cc2ccccc2)N(C)C(=O)CNC(=O)[C@@H](C)NC(=O)[C@@H](N)Cc2ccc(O)cc2)cc1)C(=O)N[C@@H](Cc1c[nH]c2ccccc12)C(=O)NCc1cc(C(F)(F)F)cc(C(F)(F)F)c1` in terms of Ki^hNK1/Ki^rNK1 is 1/19

In plain terms, CC(C)C[C@H](NC(=O)[C@@H]1CCCN1C(=O)[C@H](Cc1ccccc1)N(C)C(=O)[C@H](Cc1c[nH]c2ccccc12)N(C)C(=O)[C@@H]1CCCN1C(=O)[C@@H](N)Cc1ccc(O)cc1)C(=O)N[C@@H](Cc1c[nH]c2ccccc12)C(=O)NCc1cc(C(F)(F)F)cc(C(F)(F)F)c1 [AKG225] (H-YP[NMeW][NMeF]PLW-{NH(3,5-(CF3)2-benzyl)}) has a documented Ki^hNK1/Ki^rNK1 of 1/20

Please state, for each entry, its recorded Ki^hNK1/Ki^rNK1.
1. Cc1cc(O)cc(C)c1C[C@H](N)C(=O)N[C@H](C)C(=O)NCC(=O)N(C)[C@@H](Cc1ccccc1)C(=O)N[C@@H](CO)C(=O)NCC(=O)N1CCC[C@H]1C(=O)N[C@@H](CC(C)C)C(=O)N[C@@H](Cc1c[nH]c2ccccc12)C(=O)NCc1cc(C(F)(F)F)cc(C(F)(F)F)c1 [AKG-CRA-137] (H-[Dmt][dA]G[NMeF]SGPLW-{NH(3,5-(CF3)2-benzyl)})
2. Cc1cc(O)cc(C)c1C[C@H](N)C(=O)N[C@H](C)C(=O)NCC(=O)N(C)[C@@H](Cc1ccc(F)cc1)C(=O)N[C@@H](CO)C(=O)N1CCC[C@H]1C(=O)N[C@@H](CC(C)C)C(=O)N[C@@H](Cc1c[nH]c2ccccc12)C(=O)NCc1cc(C(F)(F)F)cc(C(F)(F)F)c1 [AKG135] (H-[Dmt][dA]G[NMePhe(4-F)]SPLW-{NH(3,5-(CF3)2-benzyl)}; N-terminus assumed)
3. CC(C)C[C@H](NC(=O)[C@@H]1CCCN1C(=O)CNC(=O)[C@H](Cc1ccc(F)cc1)N(C)C(=O)CNC(=O)[C@@H](C)NC(=O)[C@@H](N)Cc1ccc(O)cc1)C(=O)N[C@@H](Cc1c[nH]c2ccccc12)C(=O)NCc1cc(C(F)(F)F)cc(C(F)(F)F)c1 [AKG131] (H-Y[dA]G[NMePhe(4-F)]GPLW-{NH(3,5-(CF3)2-benzyl)})
4. Cc1cc(O)cc(C)c1C[C@H](N)C(=O)N[C@H](C)C(=O)NCC(=O)N(C)[C@@H](Cc1ccccc1)C(=O)N[C@@H](CO)C(=O)N1CCC[C@H]1C(=O)N[C@@H](CC(C)C)C(=O)N[C@@H](Cc1c[nH]c2ccccc12)C(=O)NCc1cc(C(F)(F)F)cc(C(F)(F)F)c1 [AKG132] (H-[Dmt][dA]G[NMeF]SPLW-{NH(3,5-(CF3)2-benzyl)})

Reply:
1. 1/18
2. 1/7
3. 1/8
4. 1/6
